Tested on: Human multiple myeloma cell line RPMI8226
Experiment: Anticancer activity against multiple myeloma cell (Cell Counting Kit-8, 3 days)
Type: cell-based
Details: RPMI-8226, 72 h, read-out: IC50 value against a multiple myeloma cell
MEASURED_ATTRIBUTE: IC50 (µM)
Express it in µM; write the number only.

Ask: Any idea what its IC50 is? The compound is N[C@@H](Cc1ccc(N(CCCl)CCCl)cc1)C(=O)O
Reply: 21
